The origin of these recorded values is patent US6303749A.

molecular target: human melanocortin-4 (MC-4) receptor (human, UniProt P32245); experiment: displacement of 125I-NDP-alpha-MSH, membranes of HEK 293 cells with hMC4 (value column 1)
Sequence (P32245 whole entry): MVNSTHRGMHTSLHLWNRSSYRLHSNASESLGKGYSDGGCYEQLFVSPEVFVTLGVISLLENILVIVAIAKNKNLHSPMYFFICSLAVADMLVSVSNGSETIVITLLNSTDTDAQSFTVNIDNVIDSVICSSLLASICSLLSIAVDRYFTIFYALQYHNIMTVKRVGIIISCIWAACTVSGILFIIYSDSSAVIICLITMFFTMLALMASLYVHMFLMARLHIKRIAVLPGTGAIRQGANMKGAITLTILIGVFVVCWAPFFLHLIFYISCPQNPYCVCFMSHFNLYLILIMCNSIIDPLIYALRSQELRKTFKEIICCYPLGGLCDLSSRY
pIC50: −log10 of the molar value. Bridge positions count the residues as written; N and C are the ends. Square brackets hold non-standard residues; d marks the D form. Ends that are not written are not given here. Abu = CC[C@H](N)C(=O)O
Collected pIC50 values appear next to each entry.

{"binder": "AC[Abu]DP[Abu]AS[Abu]QCRFFRSACSCRVL (disulfide (positions not given here)) [peptide of SEQ ID NO:16]", "pIC50": "< 6.00"}
{"binder": "CRFFGSAC (disulfide 1-8 (inferred)) [peptide of SEQ ID NO:7]", "pIC50": "< 6.00"}
{"binder": "HESCLGQQVPC[Abu]DP[Abu]ATCYCRFFNAFCYCRKL (disulfide (positions not given here)) [peptide of SEQ ID NO:2]", "pIC50": 6.70}
{"binder": "CRFFNAFC (disulfide 1-8 (inferred)) [peptide of SEQ ID NO:6]", "pIC50": "< 6.00"}

For RNSCKPPAPA[Abu][Abu]DP[Abu]ASCQCRFFRSACS[Abu]RVL (disulfide (positions not given here); also: oxidised to disulfides, pairs not given here) [peptide of SEQ ID NO:14] , what is its reported pIC50? < 6.00
